Experiment: ATG_TA_CIS: Attagene CIS-FACTORIAL HepG2 Assay for human TA Basal Promoter (AID 2282964)
Conditions: HepG2 Attagene CIS-factorial TA basal promoter reporter; actives raise or lower the signal
The source made the active and inactive calls. How the source made its calls: active means hit-call score of the fitted dose curve at least 0.9, where 1 is the maximum; inactive means score below 0.9.
Classes used: 1 for active, 0 for inactive

{"compound": "CON=C(C(=O)OC)c1ccccc1CON=C(C)c1cccc(C(F)(F)F)c1", "answerLabel": 0}
{"compound": "COc1cc(OC)nc(Sc2cccc(Cl)c2C(=O)O)n1", "answerLabel": 0}
{"compound": "CCOP(=S)(OCC)OC(Cl)C(Cl)(Cl)Cl (stereo not drawn)", "answerLabel": 0}
{"compound": "CCOC(=O)CC(SP(=O)(OC)OC)C(=O)OCC (stereo not drawn)", "answerLabel": 0}
{"compound": "CN(C)[C@@H]1C(=O)C(C(N)=O)=C(O)[C@@]2(O)C(=O)C3=C(O)c4c(O)cccc4[C@@](C)(O)[C@H]3[C@H](O)[C@@H]12", "answerLabel": 0}
{"compound": "S=C1NCCN1", "answerLabel": 0}
{"compound": "C[Si](Cn1cncn1)(c1ccc(F)cc1)c1ccc(F)cc1", "answerLabel": 1}
{"compound": "CCOP(=S)(OCC)SCCSCC", "answerLabel": 0}
{"compound": "CN1COCN(Cc2cnc(Cl)s2)C1=N[N+](=O)[O-]", "answerLabel": 0}
{"compound": "CC(C1CC1)C(O)(Cn1cncn1)c1ccc(Cl)cc1 (stereo not drawn)", "answerLabel": 0}
{"compound": "CNC(=O)ON=C(C)SC", "answerLabel": 0}
{"compound": "C[N+]1(C)CCCCC1", "answerLabel": 0}
{"compound": "COP(=O)(OC)C(O)C(Cl)(Cl)Cl (stereo not drawn)", "answerLabel": 0}
{"compound": "CC(=NC#N)N(C)Cc1ccc(Cl)nc1", "answerLabel": 0}
{"compound": "CC(C)[C@H](C(=O)O[C@H](C#N)c1cccc(Oc2ccccc2)c1)c1ccc(Cl)cc1", "answerLabel": 0}
{"compound": "CCCSP(=O)(OCC)Oc1ccc(Br)cc1Cl (stereo not drawn)", "answerLabel": 0}
{"compound": "CC(C)=CC1C(C(=O)OCN2C(=O)C3=C(CCCC3)C2=O)C1(C)C (stereo not drawn)", "answerLabel": 0}
{"compound": "FC(F)C(F)(F)OCC(Cn1cncn1)c1ccc(Cl)cc1Cl (stereo not drawn)", "answerLabel": 0}

====

Read-out: xenobiotic metabolism (CYP1A2), CYP1A2 (gene 1544)
Assay: CLD_CYP1A2_48hr: CellzDirect (CLD) Gene Expression Assay for xenobiotic metabolism (CYP1A2) at 48 hours (AID 2283703)
Inconclusive results are not listed. Calls of active or inactive are those of the source. How the source made its calls: active means hit-call score of the fitted dose curve at least 0.9, where 1 is the maximum; inconclusive means response in the unintended direction; inactive means score below 0.9.
Classes used: yes (active), no (inactive)

{"compound": "CNC(=O)Oc1cccc2c1OC(C)(C)O2", "answerLabel": "no"}
{"compound": "CCOC(=O)COc1cc(-c2nn(C)c(OC(F)F)c2Cl)c(F)cc1Cl", "answerLabel": "no"}
{"compound": "CN1COCN(Cc2cnc(Cl)s2)C1=N[N+](=O)[O-]", "answerLabel": "no"}
{"compound": "Cc1ccn2nc(S(=O)(=O)Nc3c(F)cccc3F)nc2n1", "answerLabel": "no"}
{"compound": "CC(=NC#N)N(C)Cc1ccc(Cl)nc1", "answerLabel": "no"}
{"compound": "CCc1cccc(CC)c1N(COC)C(=O)CCl", "answerLabel": "no"}
{"compound": "CCCSP(=O)(OCC)Oc1ccc(Br)cc1Cl (stereo unspecified)", "answerLabel": "yes"}
{"compound": "Cc1nn(-c2cc(NS(C)(=O)=O)c(Cl)cc2Cl)c(=O)n1C(F)F", "answerLabel": "no"}
{"compound": "C#CC(C)(C)NC(=O)c1cc(Cl)cc(Cl)c1", "answerLabel": "yes"}
{"compound": "CCCCOC(=O)[C@@H](C)Oc1ccc(Oc2ccc(C#N)cc2F)cc1", "answerLabel": "no"}
{"compound": "CSc1nc(NC(C)C)nc(NC(C)C)n1", "answerLabel": "yes"}
